Assay: qHTS assay to identify small molecule antagonists of the peroxisome proliferator-activated receptor gamma (PPARg) signaling pathway - cell viability counter screen (AID 743194); also: nearly all actives have a fitted effect of over 55% in size
Conditions: PPARg-bla HEK293H viability, CellTiter-Glo luminescence, 17 h; co-treated with 50 nM rosiglitazone unless noted; series mostly up to 62.6 µM
Results filed as inconclusive are left out. Calls of active or inactive are those of the source. Calls follow the shape of the dose curve; as a rule, active = well fitted cell-killing curve with a large enough effect in the repeat runs; inconclusive = weak or mixed curves, or effect the other way; inactive = no such curve, though single readings can be large or run the other way.
// allowed return values: active, inactive

These recorded examples may help you get a feel for the data.
1. CN1CSC(=S)N(C)C1    inactive
2. Cc1ccc(N(SC(F)(Cl)Cl)S(=O)(=O)N(C)C)cc1    active
3. Cc1nnc2n1-c1sc(CCc3ccc(CC(C)C)cc3)cc1C(c1ccccc1Cl)=NC2C (centres undefined)    active

**Query** Hi, do you know how `ClC1=C(Cl)[C@]2(Cl)[C@@H]3[C@@H](Cl)[C@H]4O[C@H]4[C@@H]3C1(Cl)C2(Cl)Cl` came out in this test?
**Result** active

----------
Biological target: Acetylcholinesterase (Homo sapiens) (UniProt P22303)
Sequence (P22303 whole entry, looked up): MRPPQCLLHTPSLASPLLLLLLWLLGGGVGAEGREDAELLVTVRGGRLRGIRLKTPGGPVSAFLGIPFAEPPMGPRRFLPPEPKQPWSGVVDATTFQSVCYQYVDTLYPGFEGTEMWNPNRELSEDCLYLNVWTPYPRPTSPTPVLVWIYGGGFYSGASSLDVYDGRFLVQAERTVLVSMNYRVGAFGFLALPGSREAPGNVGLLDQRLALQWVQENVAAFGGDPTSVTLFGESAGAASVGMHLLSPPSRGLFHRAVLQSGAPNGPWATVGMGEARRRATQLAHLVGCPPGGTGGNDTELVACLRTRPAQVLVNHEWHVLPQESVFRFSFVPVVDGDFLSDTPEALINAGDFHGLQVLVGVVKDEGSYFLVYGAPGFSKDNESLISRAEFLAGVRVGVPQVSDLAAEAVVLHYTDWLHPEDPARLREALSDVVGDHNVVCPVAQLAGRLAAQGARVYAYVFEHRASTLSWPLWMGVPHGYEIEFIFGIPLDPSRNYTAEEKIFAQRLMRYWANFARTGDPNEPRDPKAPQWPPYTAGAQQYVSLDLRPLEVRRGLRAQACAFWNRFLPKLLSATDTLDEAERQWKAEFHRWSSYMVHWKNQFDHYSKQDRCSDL
Assay: Acetylcholinesterase (AChE) small molecule antagonists: colormetric cell-based qHTS assay (AID 1347395); also: % is scaled to controls: 0 for no effect and ±100 for the full control effect; nearly all actives have a fitted effect of over 30% in size
Conditions: SH-SY5Y cells AChE activity, colorimetric (Ellman); series mostly up to 115 µM
Inconclusive results are not listed. Calls of active or inactive are those of the source. Calls come from the whole dose curve.
measure: activity, negative = inhibition

Solved entries (count: 6):
1) CCCCCC1C(=O)CCC1CC(=O)OC (configuration not stated)    inactive
2) CC(C)c1cc2c(cc1S(=O)(=O)O)[C@@]1(C)CCC[C@@](C)(C(=O)O)[C@@H]1CC2    inactive
3) NC(=O)c1cccnc1    inactive
4) CN(CCOc1ccc(CC2SC(=O)NC2=O)cc1)c1ccccn1 (configuration not stated)    inactive
5) COC(CC(C)CCCC(C)(C)O)OC (configuration not stated)    inactive
6) C=C(C)C(=O)OCCCCCC    inactive

// moving on: another record for activity, negative = inhibition
**Query** Look up activity, negative = inhibition for this molecule: `Cc1ccccc1Br`
**Result** inactive

----------
Biological target: Acetylcholinesterase (Homo sapiens)
Test: Acetylcholinesterase (AChE) small molecule antagonists: enzyme-based qHTS assay with human liver microsomes (AID 1347399); also: % is scaled to controls: 0 for no effect and ±100 for the full control effect; nearly all actives have a fitted effect of over 60% in size
Settings: qHTS inhibition; series mostly up to 115 µM
The source made the active and inactive calls. The call rests on the fitted dose curve.
// allowed return values: Yes (active), No (inactive)

1) CC(CC=O)CCCC(C)(C)O (stereo not drawn)    No

Now consider the entry below.
**Query** Hi, do you know how `Cc1ncc([N+](=O)[O-])n1CCO` came out in this test?
**Result** No

----------
Biological target: Androgen receptor (Homo sapiens)
Assay: qHTS assay to identify small molecule antagonists of the androgen receptor (AR) signaling pathway (AID 743035)
Details: HEK293 AR-UAS-bla, R1881-stimulated, beta-lactamase FRET, 16 h; series mostly up to 58.5 µM
Text: National Center for Advancing Translational Sciences [NCATS] NIH Chemical Genomics Center [NCGC] U.S. Environmental Protection Agency [EPA] National Institutes of Environmental Health Sciences [NIEHS] National Toxicology Program [NTP] U.S. Food and Drug Administration [FDA] Androgen receptor (AR), a nuclear hormone receptor, plays a critical role in AR-dependent prostate cancer and other androgen related diseases. […]
Results filed as inconclusive are left out. Calls of active or inactive are those of the source. Calls come from the whole dose curve; as a rule, active = well fitted inhibition curve with a large enough effect in the signal ratio in the repeat runs (not every such curve was filed as active); inconclusive = weak or mixed curves, or effect the other way; inactive = no such curve, though single readings can be large or run the other way; the % refers to the signal ratio.
// allowed return values: yes (1) for active, no (0) for inactive

These recorded examples may help you get a feel for the data.
1. CCCSc1cc(OC)c(CCN)cc1OC    yes (1)
2. CC1(C)S[C@@H]2[C@H](N)C(=O)N2[C@H]1C(=O)O    no (0)
3. O=C(O)CCCO    no (0)
4. OC(c1ccccc1)(c1ccccc1)C1CN2CCC1CC2 (stereo unspecified)    no (0)
5. C/C(=C\c1csc(C)n1)[C@@H]1C[C@@H]2O[C@]2(C)CCC[C@H](C)[C@H](O)[C@@H](C)C(=O)C(C)(C)[C@@H](O)CC(=O)O1    yes (1)

Now consider the entry below.
**Query** Hi, do you know how `C[C@@H](Cc1ccccc1)N(C)C` came out in this test?
**Result** no (0)
